These data points were gathered from ChEMBL document CHEMBL4811250.

# TESTED_SYSTEM: Isocitrate dehydrogenase [NADP] cytoplasmic (Homo sapiens, UniProt O75874, R132C)
# Sequence (O75874 2-414 R132C limits assumed): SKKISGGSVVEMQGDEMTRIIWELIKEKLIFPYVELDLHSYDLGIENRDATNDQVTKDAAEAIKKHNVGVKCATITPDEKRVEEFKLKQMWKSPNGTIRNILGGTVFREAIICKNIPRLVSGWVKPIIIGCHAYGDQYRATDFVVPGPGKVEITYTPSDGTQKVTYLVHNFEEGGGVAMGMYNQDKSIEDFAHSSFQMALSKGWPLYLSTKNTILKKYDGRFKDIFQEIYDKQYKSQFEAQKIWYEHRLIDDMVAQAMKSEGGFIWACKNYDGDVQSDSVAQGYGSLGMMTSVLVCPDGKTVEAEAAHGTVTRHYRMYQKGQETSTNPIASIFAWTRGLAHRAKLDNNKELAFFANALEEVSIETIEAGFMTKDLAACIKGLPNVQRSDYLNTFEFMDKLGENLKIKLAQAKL
# EXPERIMENTAL_PROTOCOL: Inhibition of IDH1 R132C mutant (unknown origin) assessed as reduction in NADPH consumption using alpha-KG as substrate incubated for 5 mins by diaphorase/resazurin-coupled system
Kindly supply the reported IC50 values for the records listed here.
Number plus unit, in that order.

Reference set (2 entries):
sample_smiles=CC1(C)CC(=O)c2cc(-c3nc(-c4ccc(Cl)cc4)cs3)c(=O)n(-c3ccccc3C(=O)O)c2C1 tested_system="Isocitrate dehydrogenase [NADP] cytoplasmic (Homo sapiens, UniProt O75874, R132C)" reported="11000 nM"
sample_smiles=CC(C)Oc1ccccc1-n1c2c(cc(-c3nc(-c4ccc(Cl)cc4)cs3)c1=O)C(=O)CC(C)(C)C2 tested_system="Isocitrate dehydrogenase [NADP] cytoplasmic (Homo sapiens, UniProt O75874, R132C)" reported="470 nM"

Please supply IC50 for each of the following items, keeping them in order.
1. CCc1cccc(CC)c1-n1c(C)c(C(=O)N(C)C)cc(-c2nc(-c3ccc(Cl)cc3)cs2)c1=O
2. CCc1cccc(CC)c1-n1c(C=C(C)C)c(C(=O)N2CC3(CNC3)C2)cc(-c2nc(-c3ccc(Cl)cc3)cs2)c1=O

result:
2000 nM
64 nM

* * *

# Tested on: Isocitrate dehydrogenase [NADP] cytoplasmic (Homo sapiens), O75874 [R132H]
# Sequence (O75874 whole entry R132H): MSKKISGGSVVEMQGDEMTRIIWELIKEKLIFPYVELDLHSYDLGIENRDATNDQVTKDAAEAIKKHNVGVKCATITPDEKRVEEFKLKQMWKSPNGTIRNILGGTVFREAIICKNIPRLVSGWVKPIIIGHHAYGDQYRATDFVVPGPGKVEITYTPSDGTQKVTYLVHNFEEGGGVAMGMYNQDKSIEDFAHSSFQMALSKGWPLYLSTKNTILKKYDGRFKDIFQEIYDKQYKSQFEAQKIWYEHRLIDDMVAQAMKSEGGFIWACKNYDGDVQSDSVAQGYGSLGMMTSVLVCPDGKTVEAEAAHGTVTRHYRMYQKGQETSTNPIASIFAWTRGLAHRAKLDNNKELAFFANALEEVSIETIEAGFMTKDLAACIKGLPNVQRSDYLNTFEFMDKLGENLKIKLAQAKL
# EXPERIMENTAL_PROTOCOL: Inhibition of IDH1 R132H mutant (unknown origin) expressed in human U87 cells assessed as R-2-hydroxyglutarate production at 500 nM after 48 hrs by LC-MS analysis
# Format: cell-based
# Parameters: scale not given: the % may be the effect or the level left
Kindly supply the reported Activity values for the records listed here.
Numbers only, in %.

Reference set (6 entries):
molecule=CCc1cccc(CC)c1-n1c(C=C(C)C)c(C(=O)N2C3CCC2CNC3)cc(-c2nc(-c3ccc(Cl)cc3)cs2)c1=O assay_metric=Activity reported=18
molecule="CCc1cccc(CC)c1-n1c(C=C(C)C)c(C(=O)N2CCNC(C(=O)O)C2)cc(-c2nc(-c3ccc(Cl)cc3)cs2)c1=O (configuration not stated)" assay_metric=Activity reported=10
molecule=CCc1cccc(CC)c1-n1c(CC(C)C)c(C(=O)N2CCNCC2)cc(-c2nc(-c3ccc(Cl)cc3)cs2)c1=O assay_metric=Activity reported=12
molecule=CCc1ccc(OC)cc1-n1c(C=C(C)C)c(C(=O)N2CCNCC2)cc(-c2nc(-c3ccc(Cl)cc3)cs2)c1=O assay_metric=Activity reported=19
molecule="CCc1cccc(CC)c1-n1c(C=C(C)C)c(C(=O)N2CCNCC2C)cc(-c2nc(-c3ccc(Cl)cc3)cs2)c1=O (configuration not stated)" assay_metric=Activity reported=11
molecule=CCc1ccc(Cl)cc1-n1c(C=C(C)C)c(C(=O)N2CCNCC2)cc(-c2nc(-c3ccc(Cl)cc3)cs2)c1=O assay_metric=Activity reported=4.1

Next molecule, please.
query: Enter Activity (test system Isocitrate dehydrogenase [NADP] cytoplasmic (Homo sapiens), O75874 [R132H]) for `CCc1cccc(CC)c1-n1c(C=C(C)C)c(C(=O)N2C[C@H]3CC[C@@H](C2)N3)cc(-c2nc(-c3ccc(Cl)cc3)cs2)c1=O`
result: 10

* * *

Kindly supply the reported inhibition values for the records listed here.
# System: Isocitrate dehydrogenase [NADP] cytoplasmic (Homo sapiens), O75874 [R132C]
# Sequence (O75874 whole entry R132C): as the sequence (O75874 whole entry R132H) above, with H132C counted along it
# EXPERIMENTAL_PROTOCOL: Inhibition of IDH1 R132C mutant (unknown origin) assessed as reduction in NADPH consumption using alpha-KG as substrate at 38 uM incubated for 5 mins by diaphorase/resazurin-coupled system relative to control
Give bare numbers, in %.

Please supply inhibition for each of the following items, keeping them in order.
1. CCc1cccc(CC)c1-n1c(C)c(C(=O)NCC(=O)O)cc(-c2nc(-c3ccc(Cl)cc3)cs2)c1=O
2. COc1ccc(OC)c(-n2c3c(cc(-c4nc(-c5ccc(Cl)cc5)cs4)c2=O)C(=O)CNC3)c1

result:
[87, 32]

Please supply inhibition for each of the following items, keeping them in order.
1. CCOc1ccc(OCC)c(-n2c3c(cc(-c4nc(-c5ccc(Cl)cc5)cs4)c2=O)C(=O)CC(C)(C)C3)c1
2. CCc1cccc(CC)c1-n1c(C)c(C(=O)O)cc(-c2nc(-c3ccc(Cl)cc3)cs2)c1=O
3. CC(C)c1ccccc1-n1c2c(cc(-c3nc(-c4ccc(Cl)cc4)cs3)c1=O)C(=O)CC(C)(C)C2
4. CCc1cccc(CC)c1-n1c(C)c(C(=O)Nc2ccccc2)cc(-c2nc(-c3ccc(Cl)cc3)cs2)c1=O
5. Cc1ccccc1-n1c2c(cc(-c3nc(-c4ccc(Cl)cc4)cs3)c1=O)C(=O)CC(C)(C)C2
6. CCc1cccc(CC)c1-n1c(C)c(C(=O)N(C)C)cc(-c2nc(-c3ccc(Cl)cc3)cs2)c1=O

result:
1. 75
2. 72
3. 61
4. 69
5. 64
6. 86

Please supply inhibition for each of the following items, keeping them in order.
1. CCc1cccc(CC)c1-n1c(C)c(C(=O)N2CCNCC2)cc(-c2nc(-c3ccc(Cl)cc3)cs2)c1=O
2. CCc1cccc(CC)c1-n1c(C)c(C(=O)N2CCOCC2)cc(-c2nc(-c3ccc(Cl)cc3)cs2)c1=O
3. CCc1cccc(CC)c1-n1c(C)c(C(=O)NCCCNC)cc(-c2nc(-c3ccc(Cl)cc3)cs2)c1=O
4. COc1ccc(OC)c(-n2c3c(cc(-n4ccc(-c5ccccc5)n4)c2=O)C(=O)CC(C)(C)C3)c1
5. CCc1cccc(CC)c1-n1c(CCOC)c(C(=O)N2CCNCC2)cc(-c2nc(-c3ccc(Cl)cc3)cs2)c1=O

result:
1: 93; 2: 71; 3: 95; 4: 41; 5: 92

Please supply inhibition for each of the following items, keeping them in order.
1. CC1(C)CC(=O)c2cc(-c3nc(-c4ccc(Cl)cc4)cs3)c(=O)n(-c3ccccc3N)c2C1
2. CCc1cccc(CC)c1-n1c(C)c(C(=O)NC(C)(C)C)cc(-c2nc(-c3ccc(Cl)cc3)cs2)c1=O
3. CC1(C)CC(=O)c2cc(-c3nc(-c4ccc(Cl)cc4)cs3)c(=O)n(-c3ccccc3)c2C1
4. CC1(C)CC(=O)c2cc(-c3nc(-c4ccc(Cl)cc4)cs3)c(=O)n(-c3ccccc3OC(F)(F)F)c2C1

result:
[42, 49, 38, 78]
